Reference source for all entries: patent US20130012546A1

Experiment: logP(HCOOH) by HPLC
Type: physicochemical
Details: HPLC on reversed phase columns, pH 2.7, 0.1% formic acid in water / acetonitrile, linear gradient 10% to 95% acetonitrile; EEC directive 79/831 Annex V.A8
Outcome label depends on log p relative to 4: at/above gives Fulfilled, below gives Not fulfilled.

| MOLECULE | CLASS |
| --- | --- |
| CON=C(C(=O)Nc1nc(CON=C(c2ccccc2)c2nnnn2C)cs1)c1ccc(Cl)cc1 | Fulfilled |
| Cc1nnnn1C(=NOCc1cccc(NC(=O)C(C)OC2CCCC2)n1)c1ccccc1 (stereo not shown) | Fulfilled |
| CC(OC(=O)Nc1cccc(CON=C(c2ccccc2)c2nnnn2C)n1)C1CCCC1 (stereo not shown) | Fulfilled |
| Cn1nnnc1C(=NOCc1csc(NC(=O)COC2CCCCCC2)n1)c1ccccc1 | Fulfilled |
| Cc1nnnn1C(=NOCc1csc(NC(=O)COC2CC(C)CCC2C(C)C)n1)c1ccccc1 (stereo not shown) | Fulfilled |
| CON=C(C(=O)Nc1nc(CON=C(c2ccccc2)n2nnnc2C)cs1)c1ccc(Cl)cc1 | Fulfilled |
| CON=C(C(=O)Nc1nc(CON=C(c2ccccc2)n2nnnc2C)cs1)c1ccc(C)cc1 [compound 125] | Not fulfilled |
| CCC(OC1CCCC1)C(=O)Nc1nc(CON=C(c2ccccc2)n2nnnc2C)cs1 (stereo not shown) | Fulfilled |
| C=CCCOCC(=O)Nc1nc(CO/N=C(/c2ccccc2)c2nnnn2C)cs1 | Not fulfilled |
| C=C=CCCC(=O)Nc1cccc(CON=C(c2ccccc2)n2nnnc2C)n1 | Not fulfilled |
| C=CCCCOCC(=O)Nc1nc(CON=C(c2ccccc2)n2nnnc2C)cs1 | Not fulfilled |
| Cn1nnnc1C(=NOCc1csc(NC(=O)OCCCC2CCCCC2)n1)c1ccccc1 | Fulfilled |
| Cc1nnnn1C(=NOCc1csc(NC(=O)C(C)OC2CCCC(C)C2)n1)c1ccccc1 (stereo not shown) | Fulfilled |
| CON=C(C(=O)Nc1cccc(CON=C(c2ccccc2)c2nnnn2C)n1)c1ccc(Cl)cc1Cl | Fulfilled |
| Cc1nnnn1C(=NOCc1csc(NC(=O)COC2CCCCCC2)n1)c1ccccc1 | Fulfilled |
| Cn1nnnc1C(=NOCc1csc(NC(=O)C(OC2CCCCC2)c2ccccc2)n1)c1ccccc1 (stereo not shown) | Fulfilled |
| C=C=CCCC(=O)Nc1cccc(CON=C(c2ccccc2)c2nnnn2C)n1 | Not fulfilled |
| CC(OC1CCCCC1)C(=O)Nc1cccc(CON=C(c2ccccc2)c2nnnn2C2CC2)n1 (stereo not shown) | Fulfilled |
| CON=C(C(=O)Nc1nc(CON=C(c2ccccc2)c2nnnn2C)cs1)c1ccc(Br)cc1 | Fulfilled |
| C=CCCCOCC(=O)Nc1cccc(CON=C(c2ccccc2)c2nnnn2C)n1 | Not fulfilled |
| Cc1nnnn1C(=NOCc1csc(NC(=O)COC2CCC2)n1)c1ccccc1 | Not fulfilled |
| CON=C(C(=O)Nc1nc(CON=C(c2ccccc2)c2nnnn2C)cs1)c1ccc(C)cc1 [compound 130] | Not fulfilled |
| C#CCOCC(=O)Nc1nc(CO/N=C(/c2ccccc2)n2nnnc2C)cs1 | Not fulfilled |
| Cc1nnnn1C(=NOCc1csc(NC(=O)OC(C)C2CCCCC2)n1)c1ccccc1 (stereo not shown) | Fulfilled |
| CCON=C(C(=O)Nc1nc(CON=C(c2ccccc2)n2nnnc2C)cs1)c1ccc(C)cc1 [compound 127] | Fulfilled |
| Cc1nnnn1C(=NOCc1cccc(NC(=O)COC2CCC2)n1)c1ccccc1 | Not fulfilled |
| Cn1nnnc1C(=NOCc1csc(NC(=O)COC2CCC2)n1)c1ccccc1 | Not fulfilled |
| C=CCOC(C)C(=O)Nc1nc(CO/N=C(/c2ccccc2)c2nnnn2C)cs1 (stereo not shown) | Not fulfilled |
| CC(C)=NOC(C)C(=O)Nc1nc(CO/N=C(/c2ccccc2)n2nnnc2C)cs1 (stereo not shown) | Not fulfilled |
| CON=C(C(=O)Nc1cccc(CON=C(c2ccccc2)c2nnnn2C)n1)c1ccc(C)cc1 | Fulfilled |
| Cc1nnnn1C(=NOCc1cccc(NC(=O)OCC2CCCCC2)n1)c1ccccc1 | Fulfilled |
| Cc1nnnn1C(=NOCc1csc(NC(=O)COC2CCCC2)n1)c1ccccc1 | Not fulfilled |
| CCC(OC1CCC1)C(=O)Nc1cccc(CON=C(c2ccccc2)n2nnnc2C)n1 (stereo not shown) | Fulfilled |
